# tgt: T1, His-tagged human HtrA1 protease domain (human, UniProt Q92743 161-367)
# T1 construct: His-tagged protease domain; also called huHtrA1-PD-His; huHtrA1-PD
# test-method-notes: SPR (BIACORE T200), huHtrA1-PD-His captured by anti-His, Fab injected

{"columns": ["binder", "koff"],
 "data": [
  ["combination mutant LC4.HC3 Fab (Fab, V domains shown, Fab) VH: EVQLVQSGAEVKKPGASVKVSCKASGYKFTDSEMHWVRQAPGQGLEWIGGVDPETDGAAYNQKFKGRATITRDTSTSTAYLELSSLRSEDTAVYYCTRGYDYDYALDYWGQGTLVTVSS VL: DIQMTQSPSSLSASVGDRVTITCRASSSVNFIHWYQQKPGKAPKPLISATSHLASGVPSRFSGSGSGTDFTLTISSLQPEDFATYYCQQWSSNPWTFGQGTKVEIK", "0.00024 s⁻¹"],
  ["combination mutant LC4.HC5 Fab (Fab, V domains shown, Fab) VH: EVQLVQSGAEVKKPGASVKVSCKASGYTFTDSELHWVRQAPGQGLEWIGGVDPETDGAAYNQKFKGRATITRDTSTSTAYLELSSLRSEDTAVYYCTRGYDYDYALDYWGQGTLVTVSS VL: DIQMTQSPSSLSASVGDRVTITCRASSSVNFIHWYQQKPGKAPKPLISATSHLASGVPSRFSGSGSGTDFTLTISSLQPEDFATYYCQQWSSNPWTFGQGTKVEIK", "0.000297 s⁻¹"]
]}
